The measured values listed here are drawn from patent US20260028403A1.

Target: T1, Cynomolgus monkey CLDN18 (cynomolgus monkey)
T1 construct: on transfected HEK293-6E cells; also called Cyno CLDN18; cyno CLDN18.2 ortholog
T1 chain: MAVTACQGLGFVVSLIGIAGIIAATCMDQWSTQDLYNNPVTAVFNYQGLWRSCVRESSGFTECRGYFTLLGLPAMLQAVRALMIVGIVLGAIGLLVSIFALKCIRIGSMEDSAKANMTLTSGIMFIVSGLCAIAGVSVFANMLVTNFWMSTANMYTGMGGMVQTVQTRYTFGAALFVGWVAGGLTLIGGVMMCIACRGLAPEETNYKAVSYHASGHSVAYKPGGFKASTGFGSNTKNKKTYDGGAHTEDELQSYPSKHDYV
Experiment: flow cytometry, HEK293-6E + cyno CLDN18, 4PL fit
The label True is reserved for EC50 strictly under 0.4 nM; False covers values equal to or above it.

binder: v37409 (antibody, human IgG1, V domains shown, human IgG1-based monoclonal antibody; also called H2-L4) VH: QVQLVESGGGLVQPGGSLRLSCSVSGIDLSSNPMIWVRQAPGKGLEYIGIIDTDGSTYYADWAKGRFTISKDSSKNTVYLQMNSLRAEDTAVYYCARRLHGSSNGYYDDLWGQGTLVTVSS VL: DGQMTQSPSSVSASVGDRVTITCQASQSIYSYLSWYQQKPGQRPKLLIYKASTLASGVPSRFSGSGSGTDFTLTISSVQPEDFATYYCQQGYTVTNVDKNTFGGGTKVEIK
qualitativeLabel: True
--
binder: v37407 (antibody, human IgG1, V domains shown, human IgG1-based monoclonal antibody; also called H4-L4) VH: QVQLVESGGGLVQPGGSLRLSCSVSGIDLSSNPMIWVRQAPGKGLEYIGIIDTDGSTYYADWAKGRFTISKDSTTVYLQMNSLRAEDTAVYYCARRLHGSSNGYYDDLWGQGTLVTVSS VL: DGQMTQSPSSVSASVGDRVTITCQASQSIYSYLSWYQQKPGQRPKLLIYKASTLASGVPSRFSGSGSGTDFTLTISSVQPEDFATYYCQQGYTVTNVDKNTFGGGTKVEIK
qualitativeLabel: True
--
binder: v37411 (antibody, human IgG1, V domains shown, human IgG1-based monoclonal antibody; also called H5-L4; anti-CLDN18.2 mAb) VH: QVQLVESGGGLVQPGGSLRLSCSVSGIDLSSNPMIWVRQAPGKGLQYIGIIDTDGSTYYADWAKGRFTISKDSTTVYLQINSPRAEDTAVYYCARRLHGSSNGYYDDLWGQGTLVTVSS VL: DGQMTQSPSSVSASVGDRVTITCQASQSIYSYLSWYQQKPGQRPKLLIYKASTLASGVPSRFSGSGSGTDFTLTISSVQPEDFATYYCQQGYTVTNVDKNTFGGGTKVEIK
qualitativeLabel: True
--
binder: v35777 (antibody, human IgG1, V domains shown, also called parental rabbit chimeric; rabbit-human chimeric IgG1/kappa anti-CLDN18.2) VH: QSLEESGGRLVTPGTPLTLTCTVSGIDLSSNPMIWVRQAPGKGLQYIGIIDTDGSTYYASWAKGRFTGSKTSTTVDLKITSPTTEDTATYFCARRLHGSSNGYYDDLWGQGTLVTISS VL: DGVMTQTPSSVSAAVGGTVTIKCQASQSIYSYLSWYQQKPGQRPKLLIYKASTLASGVPSRFKGSGSGTEFTLTISGVQCDDAATYYCQQGYTVTNVDKNTFGGGTEVVVK
qualitativeLabel: False
--
binder: v37410 (antibody, human IgG1, V domains shown, human IgG1-based monoclonal antibody; also called H3-L4) VH: QVQLVESGGGLVQPGGSLRLSCSVSGIDLSSNPMIWVRQAPGKGLQYIGIIDTDGSTYYADWAKGRFTISKDSSKNTVYLQMNSLRAEDTAVYYCARRLHGSSNGYYDDLWGQGTLVTVSS VL: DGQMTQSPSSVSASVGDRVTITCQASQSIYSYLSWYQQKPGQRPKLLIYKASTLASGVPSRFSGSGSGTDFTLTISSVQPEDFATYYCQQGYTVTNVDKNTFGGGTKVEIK
qualitativeLabel: True
--
binder: v37408 (antibody, human IgG1, V domains shown, human IgG1-based monoclonal antibody; also called H4-L2) VH: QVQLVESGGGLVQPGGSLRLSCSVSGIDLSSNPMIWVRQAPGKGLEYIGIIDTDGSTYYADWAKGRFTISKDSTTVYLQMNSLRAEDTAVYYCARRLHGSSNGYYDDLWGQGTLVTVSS VL: DGQMTQSPSSVSASVGDRVTITCQASQSIYSYLSWYQQKPGQRPKLLIYKASTLASGVPSRFSGSGSGTDFTLTISSVQPEDAATYYCQQGYTVTNVDKNTFGGGTKVEVK
qualitativeLabel: True
